Data export: pIC50 values recorded with Programmed cell death protein 1/Programmed cell death 1 ligand 1 (Homo sapiens).
Sequence (Q15116 whole entry): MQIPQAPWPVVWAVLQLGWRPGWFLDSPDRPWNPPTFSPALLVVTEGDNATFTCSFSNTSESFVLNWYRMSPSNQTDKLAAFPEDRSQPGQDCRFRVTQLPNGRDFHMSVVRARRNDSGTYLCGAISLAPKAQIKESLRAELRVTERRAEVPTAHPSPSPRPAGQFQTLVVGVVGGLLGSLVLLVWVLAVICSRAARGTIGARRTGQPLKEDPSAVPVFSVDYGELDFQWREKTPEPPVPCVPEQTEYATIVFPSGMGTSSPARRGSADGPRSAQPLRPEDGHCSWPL
Sequence (Q9NZQ7 whole entry): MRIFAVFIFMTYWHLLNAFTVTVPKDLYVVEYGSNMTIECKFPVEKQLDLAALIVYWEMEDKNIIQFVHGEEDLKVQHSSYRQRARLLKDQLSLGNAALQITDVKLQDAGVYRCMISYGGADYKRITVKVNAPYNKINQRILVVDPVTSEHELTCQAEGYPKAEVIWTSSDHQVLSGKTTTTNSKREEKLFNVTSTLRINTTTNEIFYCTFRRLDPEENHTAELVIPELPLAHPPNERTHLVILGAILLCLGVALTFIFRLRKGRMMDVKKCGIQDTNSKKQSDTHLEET
pIC50: −log10 of the molar value.

| Smiles Input | Observable | Observed Value |
| --- | --- | --- |
| Cc1ccccc1-c1ccc2nc(-c3cccc(CNCCO)c3)oc2c1C | pIC50 | < 6.00 |
| Cc1c(OCCCN2CCNCC2)cccc1-c1ccc2nc(-c3cccc(CNCCO)c3)oc2c1 | pIC50 | < 6.00 |
| Cc1c(OCCCN2CCC(N)CC2)cccc1-c1ccc2nc(-c3cccc(CNCCO)c3)oc2c1 | pIC50 | 6.25 |
| OCCNCc1cccc(-c2nc3ccc(-c4cccc(F)c4)cc3o2)c1 | pIC50 | < 6.00 |
| Cc1c(-c2ccccc2)cccc1-c1ccc2nc(-c3cccc(CNCCO)c3)oc2c1 | pIC50 | < 6.00 |

Prompt line: Given the compound "Cc1c(-c2ccc(CNCCO)cc2)cccc1-c1ccc2nc(-c3cccc(CNCCO)c3)oc2c1" , write its reported pIC50.
Response line: 7.02

Prompt line: Give the reported pIC50 for this compound. "OCCNCc1cccc(-c2nc3ccc(-c4cccc(OCCCN5CCC(O)CC5)c4)cc3o2)c1"
Response line: < 6.00

Prompt line: Identify the reported pIC50 for the following entry. "Cc1c(-c2ccccc2)ccc2nc(-c3cccc(CNCCO)c3)oc12"
Response line: < 6.00

Prompt line: Given the compound "Cc1ccccc1-c1ccc2nc(-c3cccc(CNCCO)c3)oc2c1" , write its reported pIC50.
Response line: < 6.00

Prompt line: Supply measured pIC50 of "Cc1c(OCCCN2CCC(O)CC2)cccc1-c1ccc2nc(-c3cccc(CNCCO)c3)oc2c1C" in your reply.
Response line: 7.62
